Tested on: ATCC19606 strain (Acinetobacter baumannii)
Method Summary: Checkerboard antibacterial synergistic activity test with polymyxin E (FIC)
Assay type: cell-based
Parameters: key: FIC≤0.5 synergy; 0.5–1 additive; 1–2 indifferent; ≥2 antagonism
Test Conditions: combined with polymyxin E
Overview of reported Synergistic activity (FIC value) ATCC19606 across a group of molecules:
Result Type: Synergistic activity (FIC value) ATCC19606

[[record]]
smiles_entry = "CCc1sc(N=C2NCCCN2)nc1-c1cc(C)c(F)c(C)c1"
measurement = 0.52

[[record]]
smiles_entry = "Cc1ccc(Sc2ccccc2-c2coc(N=C(N)N)n2)c(C)c1"
measurement = 0.03

[[record]]
smiles_entry = "Oc1c(I)cc(-c2nc(N=C3NCCCN3)sc2Cl)cc1I"
measurement = 0.25

[[record]]
smiles_entry = "CC(C)=CCOc1cc(-c2nc(N=C(N)N)oc2Cl)cc(OCC=C(C)C)c1O"
measurement = 0.13

[[record]]
smiles_entry = "CC(C)c1cc(-c2coc(N=C(N)N)n2)cc(C(C)C)c1O"
measurement = 0.12

[[record]]
smiles_entry = "Cc1ccc(Oc2cccc(-c3csc(N=C4NCCCN4)n3)c2)c(C)c1"
measurement = 0.31

[[record]]
smiles_entry = "O=C(Nc1ccccc1)Nc1cccc(-c2nc(N=C3NCCCN3)sc2Br)c1"
measurement = 0.75

[[record]]
smiles_entry = "NC(N)=Nc1nc(-c2ccccc2C(F)(F)F)c[se]1"
measurement = 0.5

[[record]]
smiles_entry = "NC(N)=Nc1nc(-c2ccccc2Cl)c[nH]1"
measurement = 0.25

[[record]]
smiles_entry = "O=[N+]([O-])c1cc(-c2nc(N=C3NCCCN3)sc2Br)ccc1Br"
measurement = 0.13

[[record]]
smiles_entry = "NC(N)=Nc1nc(-c2ccc(O)c(CO)c2)cs1"
measurement = 1.25

[[record]]
smiles_entry = "Cc1ccc(Oc2ccccc2-c2csc(NC3=NCCCN3)n2)c(C)c1"
measurement = 0.38

[[record]]
smiles_entry = "CSc1cc2cc(C)cc(C)n2c1-c1nc(N=C(N)N)oc1C"
measurement = 0.03

[[record]]
smiles_entry = "CC(C)(C)c1ccccc1-c1coc(N=C(N)N)n1"
measurement = 1.25

[[record]]
smiles_entry = "c1ccn2c(-c3coc(N=C4NCCCN4)n3)ccc2c1"
measurement = 0.28

[[record]]
smiles_entry = "NC(N)=Nc1nc(-c2cc(Cl)cc3c2Cc2ccc(Cl)cc2-3)cs1"
measurement = 0.25

[[record]]
smiles_entry = "Clc1cc(Cl)cc(-c2csc(N=C3NCCCN3)n2)c1"
measurement = 0.25

[[record]]
smiles_entry = "NC(N)=Nc1nc(-c2ccc(C(F)(F)F)cc2)cs1"
measurement = 1.25

[[record]]
smiles_entry = "NC(N)=Nc1nc(-c2cccc3cccc(Cl)c23)c(Cl)s1"
measurement = 0.52


The origin of these recorded values is patent US20260250257A1.
